Provide the recorded growth for the entries that follow.
# Tested on: HOP-62 NSCLC
# ASSAY SUMMARY: NCI-60 one-dose screen, 48 h (100 = growth as untreated, 0 = no growth, -100 = all killed)
# REPORTED CONDITIONS: 10 µM unless noted
The panel holds about 83,000 compounds, 20% with a hit somewhere; the sample as a whole holds those more often.
One number for each entry, in %.

Below, each entry is followed by its recorded growth result.
## Input Specify reported growth for the compound shown: Cc1cn(C2CC(F)C(CO)O2)c(=O)[nH]c1=O (stereo not given)
## Output 88.4

## Input Specify reported growth for the compound shown: `O=C(CSc1nnc(-c2cc3c([nH]c4ccccc43)c(-c3cccc(O)c3)n2)n1-c1ccccc1)c1ccccc1`
## Output 59.3

## Input Specify reported growth for the compound shown: `CSc1ccc(C(=O)C[n+]2cccc(C)c2)cc1`
## Output 107

## Input Specify reported growth for the compound shown: `C[C@H]1C=C(C[C@@H](O)CCCCCCCCCC[C@@H](O)[C@H]2CCC(=O)O2)C(=O)O1`
## Output 109

Next item in the queue.
## Input Specify reported growth for the compound shown: COCCNC(C(=O)c1ccccc1)c1ccccc1 (stereo not given)
## Output 100

* * *

Provide the recorded growth for the entries that follow.
# Tested on: A498 renal
# ASSAY SUMMARY: NCI-60 one-dose screen, 48 h (100 = growth as untreated, 0 = no growth, -100 = all killed)
# REPORTED CONDITIONS: 10 µM unless noted
This is part of a sample that, as a whole, favours compounds with a hit. Of some 83,000 tested, about 20% had one in any assay.
Answers are plain numbers, in %.

## Input Provide A498 renal growth reading for `O=C(c1ccccc1)[C@H]1[C@@H]2CCCN2[C@]2(C(=O)Nc3ccc(F)cc32)[C@]12C(=O)Nc1ccccc12` .
## Output 89.7

## Input Provide A498 renal growth reading for `C=C1C(=O)O[C@H]2[C@H]1CC/C(CNC(=O)/C1=C/CC[C@@]3(C)O[C@H]3[C@H]3OC(=O)C(=C)[C@@H]3CC1)=C\CC[C@@]1(C)O[C@@H]21` .
## Output 94.6

## Input Provide A498 renal growth reading for Cc1ccc2c(C3C(C#N)=C(N)Oc4cc5ccccc5cc43)cc(=O)oc2c1 (stereo not drawn) .
## Output 30.8

Take each entry in turn and give its growth.
1. O=C(/C=C/c1ccccc1)Oc1ccc(/C=C/c2cc(OC(=O)/C=C/c3ccccc3)cc(OC(=O)/C=C/c3ccccc3)c2)cc1
2. COc1cc(NC(C)CCCN2C(=O)c3ccccc3C2=O)c2nccc(C)c2c1OC (stereo not drawn)
3. CS(=O)(=O)OCC(COS(C)(=O)=O)C(c1ccccc1)c1ccccc1
4. O=C(Nc1ccc(-n2ccc3c(NC(=O)c4ccccc4)ncnc32)cc1)c1ccc(Cl)c(C(F)(F)F)c1

## Output
1: 91.3; 2: 92.9; 3: 93.3; 4: 80.1

* * *

# System: BT-549 breast
# ASSAY SUMMARY: NCI-60 one-dose screen, 48 h (100 = growth as untreated, 0 = no growth, -100 = all killed)
# REPORTED CONDITIONS: 10 µM unless noted
This is part of a sample that, as a whole, favours compounds with a hit. Of some 83,000 tested, about 20% had one in any assay.
Please note: Satisfied applies when growth is 90% or greater, and Not satisfied applies otherwise.

Check out these entries, answers already filled in.
## Input // inclusive: growth at least 90%? input: `COc1ccc(C(=O)Cn2cnc3c(Nc4cc(C(=O)Nc5ccc(N6CCN(CCO)CC6)cc5)ccc4C)ncnc32)cc1`
## Output Satisfied

## Input // inclusive: growth at least 90%? input: `O=c1c2ccccc2sc2c(N3CCCC3)nc3ccccc3c12`
## Output Satisfied

## Input // inclusive: growth at least 90%? input: `Nc1nc(=S)ss1`
## Output Satisfied

## Input // inclusive: growth at least 90%? input: Cc1ccc2oc(=O)cc(C3C(C#N)=C(N)Oc4c3ccc3ccccc43)c2c1 (stereo unspecified)
## Output Not satisfied

## Input // inclusive: growth at least 90%? input: `CC(C)CNCC(=O)Nc1ccc(Cc2ccc(NC(=O)CNCC(C)C)cc2)cc1`
## Output Not satisfied

## Input // inclusive: growth at least 90%? input: `O=C(Nc1ccc(-n2cc(-c3ccncc3)c(-c3ccc(O)c(Cl)c3)n2)cc1)c1cc(C(F)(F)F)cc(C(F)(F)F)c1`
## Output Not satisfied

## Input // inclusive: growth at least 90%? input: COc1cc(NC(C)CCCN2C(=O)c3ccccc3C2=O)c2nccc(C)c2c1OC (stereo unspecified)
## Output Satisfied

## Input // inclusive: growth at least 90%? input: `Cc1cc(NCCN(C(C)C)C(C)C)nc(/N=C(\N)Nc2ccc(Cl)c(C(F)(F)F)c2)n1`
## Output Not satisfied

More entries:
## Input // inclusive: growth at least 90%? input: `CC[C@H]1[C@@H]2C=C[C@@H]3[C@H]4C/C=C\C(=O)NCCC[C@@H]5NC(=O)/C(=C(O)/C=C/[C@@H]4C[C@@H]3[C@H]2C[C@H]1C)C5=O`
## Output Not satisfied

## Input // inclusive: growth at least 90%? input: COc1ccc(C2CC(c3cc(Cl)c(C)cc3OC)=NN2c2ccc(S(N)(=O)=O)cc2)cc1OC (stereo unspecified)
## Output Not satisfied

## Input // inclusive: growth at least 90%? input: CN1C(=O)C2(SCC(C(=O)NCC(=O)OC(C)(C)C)N2C(=O)C2CCCCC2)c2ccccc21 (stereo unspecified)
## Output Satisfied

## Input // inclusive: growth at least 90%? input: `O=C1COc2ccccc2C(=O)N1CCCCNc1ccccc1`
## Output Not satisfied

## Input // inclusive: growth at least 90%? input: `COC(=O)c1oc2c(C(C)=O)c(OCCCN(C)C)ccc2c1C`
## Output Satisfied

## Input // inclusive: growth at least 90%? input: `COc1ccc(-c2nnc(SCC(=O)Nc3ccc(C(=O)/C=C/c4ccc(OC)c(OC)c4)cc3)o2)cc1`
## Output Satisfied

## Input // inclusive: growth at least 90%? input: `COc1cc2ncn3c(=O)c4c5c(sc4nc3c2cc1OC)CCCCC5`
## Output Satisfied

## Input // inclusive: growth at least 90%? input: `ClC1c2ccccc2CCc2ccccc21`
## Output Satisfied

## Input // inclusive: growth at least 90%? input: `CCCCCCCCCCCCCCCCNc1ccccc1`
## Output Not satisfied

## Input // inclusive: growth at least 90%? input: `CC(=O)n1cc(/C=C2\N=C(c3ccc(Cl)cc3)N(c3ccc(S(=O)(=O)Nc4nccs4)cc3)C2=O)c2ccccc21`
## Output Satisfied

## Input // inclusive: growth at least 90%? input: `Nc1ccc(S(=O)(=O)Nc2ccnn2-c2ccccc2)cc1`
## Output Satisfied

## Input // inclusive: growth at least 90%? input: `C=CC(=O)Nc1cccc(Nc2nc(Nc3ccc(OCCOC(F)F)cc3)ncc2F)c1`
## Output Not satisfied

## Input // inclusive: growth at least 90%? input: `O[C@@H]1CCO[C@H](c2ccc3ccccc3c2)C1`
## Output Satisfied

## Input // inclusive: growth at least 90%? input: `CCCc1nn2c(CCC(=O)c3nc4ccc([N+](=O)[O-])cc4[nH]3)nnc2s1`
## Output Satisfied

## Input // inclusive: growth at least 90%? input: `FC(F)(F)c1cccc([Si](F)(c2cccc(C(F)(F)F)c2)c2cccc(C(F)(F)F)c2)c1`
## Output Not satisfied

## Input // inclusive: growth at least 90%? input: `CCOc1ccc(Cc2nccc3cc(OCC)c(OCC)cc23)cc1OCC`
## Output Not satisfied

* * *

# Test system: HOP-62 NSCLC
# ASSAY SUMMARY: NCI-60 one-dose screen, 48 h (100 = growth as untreated, 0 = no growth, -100 = all killed)
# REPORTED CONDITIONS: 10 µM unless noted
About 83,000 compounds went through this panel and 20% of them were active in at least one assay; those are over-represented in the sample as a whole.
Please respond with YES when measured growth is strictly beneath 60%, and with NO in all other cases.

## Input hey, is growth for `COc1cc2ncnc(Oc3ccc(NC(=O)Nc4ccc(CN5CCOCC5)c(C(F)(F)F)c4)c4ccccc34)c2cc1OC` lower than 60% or not?
## Output NO

## Input hey, is growth for `O=C(Nc1ccc(-n2ccc3c(NC(=O)c4ccccc4)ncnc32)cc1)c1cccc(C(F)(F)F)c1` lower than 60% or not?
## Output NO

## Input hey, is growth for `Nc1ncnc2c1c(-c1ccc(Oc3ccccc3)cc1)nn2C[C@H]1SSC[C@H]1O` lower than 60% or not?
## Output YES

## Input hey, is growth for `O=C(Cn1c2ccccc2c2ccncc21)N/N=C/c1c[nH]c2ccccc12` lower than 60% or not?
## Output YES

Next item in the queue.
## Input hey, is growth for `C=C1C(=O)O[C@H]2[C@H]1CC/C(COC(=O)c1cccc3ccccc13)=C\CC[C@@]1(C)O[C@@H]21` lower than 60% or not?
## Output YES
